These data points were gathered from patent US9874558B2.

- test.target: Lens culinaris lectin (LCA) (Lens culinaris, UniProt P02870)
- Sequence (P02870 31-211 limits assumed): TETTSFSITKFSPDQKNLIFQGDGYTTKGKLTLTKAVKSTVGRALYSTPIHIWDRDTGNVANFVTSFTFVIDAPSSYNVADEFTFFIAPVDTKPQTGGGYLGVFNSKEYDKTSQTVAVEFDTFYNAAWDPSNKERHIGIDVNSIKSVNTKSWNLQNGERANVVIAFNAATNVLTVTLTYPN
- Sequence (P02870 218-269 limits assumed): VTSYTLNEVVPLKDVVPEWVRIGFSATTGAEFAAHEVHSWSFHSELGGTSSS
assay.metric: Kd (µM)
// note: answer is a bare numeric in µM

Query: Any idea what its Kd is? The compound is CC(C)CCCC(C)C1CCC2C3CC=C4CC(OC(=O)NCCOC5OC(CO)[C@H](O)C(O)[C@@H]5O)CC[C@]4(C)C3CC[C@]12C (stereo partly shown) [Man-2-Chol]
Response: 220
